Form field: EC50 (one value per entry).
molecular target: cellular IDO1 in HeLa cells (Homo sapiens (Human)); test: HeLa Cell-Based IDO1 Kyn (Kynurenine) Production Assay; conditions: IFN-γ induced IDO1, 48 hours incubation, Kyn absorbance at 480 nm
Field: numeric (nM). Do not append units.

COC(=O)c1ccc2[nH]c([C@H]3CC[C@@H](c4ccnc5ccc(F)cc54)CC3)nc2c1 [Example C8b]; 37
C[C@@H](c1nc2cc(F)c(F)c(Cl)c2[nH]1)[C@H]1CC[C@H](c2ccnc3ccc(F)cc32)CC1 [Example B190]; 5.74
C[C@@H](c1nc2cc(-c3ccccc3)c(F)cc2[nH]1)[C@H]1CC[C@@H](c2ccnc3ccc(F)cc32)CC1 [B156]; 3.1

Turning to the following molecule.
Query :: Tell me the measured EC50 of COCCNC(=O)c1ccc2[nH]c(C(C)[C@H]3CC[C@@H](c4ccnc5ccc(F)cc54)CC3)nc2c1 (stereo partly shown) [Example B216] , please.
Result :: 62.9

---

target: cellular IDO1 in HeLa cells (Homo sapiens (Human), UniProt P14902); test: HeLa Cell-Based IDO1 Kyn (Kynurenine) Production Assay; conditions: IFN-γ induced IDO1, 48 hours incubation, Kyn absorbance at 480 nm
Sequence (P14902 whole entry): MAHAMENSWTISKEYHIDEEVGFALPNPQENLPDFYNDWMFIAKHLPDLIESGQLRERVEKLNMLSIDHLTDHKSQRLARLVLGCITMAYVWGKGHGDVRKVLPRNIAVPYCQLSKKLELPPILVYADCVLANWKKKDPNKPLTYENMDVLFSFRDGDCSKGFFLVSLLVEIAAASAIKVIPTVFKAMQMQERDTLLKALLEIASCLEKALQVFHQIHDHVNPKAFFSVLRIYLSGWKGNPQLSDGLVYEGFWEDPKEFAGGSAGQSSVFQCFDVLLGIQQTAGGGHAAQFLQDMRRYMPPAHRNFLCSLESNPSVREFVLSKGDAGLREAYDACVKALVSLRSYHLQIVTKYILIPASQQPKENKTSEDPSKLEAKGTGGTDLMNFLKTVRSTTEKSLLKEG
property: EC50

Query :: Tell me the measured EC50 of Fc1cc2nc(C[C@H]3CC[C@@H](c4ccccc4)CC3)[nH]c2cc1Br [Example A37b] , please.
Result :: 99 nM

---

target: cellular IDO1 in HeLa cells (Homo sapiens (Human), UniProt P14902); assay: HeLa Cell-Based IDO1 Kyn (Kynurenine) Production Assay; settings: IFN-γ induced IDO1, 48 hours incubation, Kyn absorbance at 480 nm
Param label: returns 1 when EC50 < 50 nM, returns -1 otherwise, including exact equality.

These recorded examples may help you get a feel for the data.
Cc1cc2nc(C[C@H]3CC[C@@H](c4ccnc5ccc(F)cc54)CC3)[nH]c2cc1C; 1
O=C(O)c1ccc2[nH]c(CC3CCC(c4ccnc5ccc(F)cc45)CC3)nc2c1 (centres unmarked); -1
Clc1ccc2[nH]c(CC3CCC(c4cccc5ncccc45)CC3)nc2c1 (centres unmarked); -1
COC(=O)c1ccc2[nH]c([C@H](C)[C@H]3CC[C@@H](c4ccnc5ccc(F)cc54)CC3)nc2c1; -1
Clc1ccc2[nH]c(CC3CCC(c4ccncc4)CC3)nc2c1 (centres unmarked); -1

Query :: Given Fc1cc2nc(C[C@H]3CC[C@@H](c4ccc(F)c5ncccc54)CC3)[nH]c2cc1F [Example A26b] , is recorded EC50 strictly lower than 50 nM?
Result :: -1

Query :: Given C[C@H](c1nc2cc(F)c(F)cc2[nH]1)[C@H]1CC[C@@H](c2ccnc3ccc(F)cc32)CC1 , is recorded EC50 strictly lower than 50 nM?
Result :: -1

Query :: Given CC(=O)Nc1ccc2nc([C@H](C)[C@H]3CC[C@@H](c4ccnc5ccc(F)cc54)CC3)[nH]c2c1 , is recorded EC50 strictly lower than 50 nM?
Result :: 1

Query :: Given CC(c1nc2ccc(N)cc2[nH]1)[C@H]1CC[C@@H](c2ccnc3ccc(F)cc32)CC1 (some centres unmarked) , is recorded EC50 strictly lower than 50 nM?
Result :: 1

Query :: Given Cc1noc(-c2ccc3nc([C@@H](C)[C@H]4CC[C@@H](c5ccnc6ccc(F)cc65)CC4)[nH]c3c2)n1 , is recorded EC50 strictly lower than 50 nM?
Result :: 1

---

biological target: cellular IDO1 in HeLa cells (Homo sapiens (Human)); test: HeLa Cell-Based IDO1 Kyn (Kynurenine) Production Assay; details: IFN-γ induced IDO1, 48 hours incubation, Kyn absorbance at 480 nm
property: EC50 (nM)
Field: numeric (nM). Do not append units.

Before answering, review these 3 worked examples.
Clc1ccc2[nH]c(C[C@H]3CC[C@H](c4ccccc4)CC3)nc2c1 [Example A34a]; 168
C[C@@H](c1nc2cc(Cl)c(F)cc2[nH]1)[C@H]1CC[C@@H](c2ccnc3ccc(F)cc32)CC1 [Example B2a]; 0.38
CC(c1nc2ccc(C(=O)O)cc2[nH]1)[C@H]1CC[C@@H](c2ccnc3ccc(F)cc32)CC1 (stereo partly shown); 567

Turning to the following compound.
Query :: Tell me the measured EC50 of C[C@@H](c1nc2cc(Cl)c(F)cc2[nH]1)[C@H]1CC[C@@H](c2ccnc3ccc(F)cc32)CC1 [Example B2] , please.
Result :: 0.95

---

target: cellular IDO1 in HeLa cells (Homo sapiens (Human)); assay: HeLa Cell-Based IDO1 Kyn (Kynurenine) Production Assay; details: IFN-γ induced IDO1, 48 hours incubation, Kyn absorbance at 480 nm
Form field: log10(EC50) (one value per entry).
The figures below represent log10 of EC50, where EC50 is stated in nM.

Before answering, review these 6 worked examples.
Fc1ccc2[nH]c([C@H]3CC[C@H](c4ccnc5ccc(F)cc54)CC3)nc2c1; 3.16
Fc1cc2nc(C[C@H]3CC[C@H](c4ccccc4)CC3)[nH]c2cc1Br [Example A37a]; 2.35
Fc1ccc2nccc([C@H]3CC[C@@H](CCc4nc5cc(Cl)ccc5[nH]4)CC3)c2c1; 1.08
C[C@@H](c1nc2cc(C(=O)N(C)C)ccc2[nH]1)[C@H]1CC[C@@H](c2ccnc3ccc(F)cc32)CC1; 1.66
C[C@@H](c1nc2c(F)cc(F)c(Cl)c2[nH]1)[C@H]1CC[C@H](c2ccnc3ccc(F)cc32)CC1; 1.46
Clc1ccc2[nH]c(C3C4CCC(c5ccccc5)CC43)nc2c1 (stereo not shown); 3.22

Turning to the following molecule.
Query :: Tell me the measured log10(EC50) of Fc1ccc2nccc([C@H]3CC[C@@H](Cc4nc5cc(C6CC6)ccc5[nH]4)CC3)c2c1 , please.
Result :: 1.11

---

biological target: cellular IDO1 in HeLa cells (Homo sapiens (Human)); experiment: HeLa Cell-Based IDO1 Kyn (Kynurenine) Production Assay; conditions: IFN-γ induced IDO1, 48 hours incubation, Kyn absorbance at 480 nm
Form field: EC50 (one value per entry).

CC(c1nc2cc(C(=O)NCC3(O)CCC3)ccc2[nH]1)[C@H]1CC[C@@H](c2ccnc3ccc(F)cc32)CC1 (stereo partly shown); > 1000 nM
NC(=O)c1ccc2[nH]c([C@H]3CC[C@H](c4ccnc5ccc(F)cc54)CC3)nc2c1; > 10000 nM
FC(F)(F)c1ccc2[nH]c(C[C@H]3CC[C@H](c4ccccc4)CC3)nc2c1 [Example A33a]; > 10000 nM

Query :: Tell me reported EC50 for CC(c1nc2cc(C(=O)NCC3(O)CCC3)ccc2[nH]1)[C@H]1CC[C@H](c2ccnc3ccc(F)cc32)CC1 (stereo partly shown) , tested with cellular IDO1 in HeLa cells (Homo sapiens (Human)).
Result :: > 1000 nM

---

target: cellular IDO1 in HeLa cells (Homo sapiens (Human), UniProt P14902); assay: HeLa Cell-Based IDO1 Kyn (Kynurenine) Production Assay; settings: IFN-γ induced IDO1, 48 hours incubation, Kyn absorbance at 480 nm
Param label: returns 1 when EC50 < 50 nM, returns 0 otherwise, including exact equality.

These recorded examples may help you get a feel for the data.
NC(=O)c1ccc2[nH]c([C@H]3CC[C@@H](c4ccnc5ccc(F)cc54)CC3)nc2c1; 0
COC(=O)c1ccc2nc(C(C)[C@H]3CC[C@@H](c4ccnc5ccc(F)cc54)CC3)[nH]c2c1F (some centres unmarked); 1
Clc1ccc2nc(C3CC4CC3CC4c3ccccc3)[nH]c2c1 (centres unmarked) [Example D1]; 0
Fc1ccc2nccc(C3CCC(Cc4nc5cc(CN6CCCCC6)ccc5[nH]4)CC3)c2c1 (centres unmarked); 0
C[C@@H](c1nc2ccc(S(C)(=O)=O)cc2[nH]1)[C@H]1CC[C@@H](c2ccnc3ccc(F)cc32)CC1; 1

Query :: Given Clc1ccc2[nH]c(C[C@H]3CC[C@H](c4ccc5ncccc5c4)CC3)nc2c1 [Example A23a] , is recorded EC50 strictly lower than 50 nM?
Result :: 0

---

target: cellular IDO1 in HeLa cells (Homo sapiens (Human), UniProt P14902); assay: HeLa Cell-Based IDO1 Kyn (Kynurenine) Production Assay; conditions: IFN-γ induced IDO1, 48 hours incubation, Kyn absorbance at 480 nm
property: EC50 (nM)
Field: numeric (nM). Do not append units.

Before answering, review these 10 worked examples.
Fc1ccc2nccc([C@H]3CC[C@@H](Cc4nc5cc(OC6CC6)ccc5[nH]4)CC3)c2c1; 50
C[C@@H](c1nc2cc(C(=O)NC3CC3)c(F)cc2[nH]1)[C@H]1CC[C@@H](c2ccnc3ccc(F)cc32)CC1; 6.9
C[C@@H](c1nc2c(Cl)c(F)cc(F)c2[nH]1)[C@H]1CC[C@@H](c2ccnc3ccc(F)cc32)CC1; 6.79
Clc1ccc2[nH]c(C[C@H]3CC[C@@H](c4ccnc5ccccc54)CC3)nc2c1 [Example A10b]; 10
CC(c1nc2cc(C(=O)N(C)C)ccc2[nH]1)[C@H]1CC[C@@H](c2ccnc3ccc(F)cc32)CC1 (stereo partly shown); 46
Fc1ccc2nccc([C@H]3CC[C@@H](Cc4nc5cc(C(F)(F)F)ccc5[nH]4)CC3)c2c1; 6.8
COC(=O)c1ccc2[nH]c(C(C)C3CCC(c4ccnc5ccc(F)cc45)CC3)nc2c1 (stereo not shown); 1.3
COC1CCC(NC(=O)c2ccc3[nH]c(C(C)[C@H]4CC[C@H](c5ccnc6ccc(F)cc65)CC4)nc3c2)CC1 (stereo partly shown); 193
Cc1cc(C(=O)NC2CCC2)cc2nc([C@H](C)[C@H]3CC[C@@H](c4ccnc5ccc(F)cc54)CC3)[nH]c12; 17.1
Fc1ccc2nccc(N3CCC(Cc4nc5cc(Cl)ccc5[nH]4)CC3)c2c1; 481

Query :: Tell me the measured EC50 of CC(c1nc2cc(F)c(F)c(Cl)c2[nH]1)[C@H]1CC[C@@H](c2ccnc3ccc(F)cc32)CC1 (stereo partly shown) , please.
Result :: 8.8

Query :: Tell me the measured EC50 of CC(c1nc2cc3c(=O)[nH]cnc3cc2[nH]1)[C@H]1CC[C@@H](c2ccnc3ccc(F)cc32)CC1 (stereo partly shown) , please.
Result :: 82.3

Query :: Tell me the measured EC50 of Fc1ccc2nccc(C3CCN(CCc4nc5cc(Cl)ccc5[nH]4)CC3)c2c1 , please.
Result :: 143
